- assayProtocol: Cmax in wildtype FVB mouse at 10 mg/kg, po
- Format: ADME, organism-based
- Parameters: dose 10 mg/kg, route oral
- conditionSummary: in vivo
measurementName: Cmax (nM)
Reply numerically in nM, unit not repeated.

Problem: Indicate the recorded Cmax value for this molecule: `CC(C)=CCC[C@](C)(O[C@@H]1O[C@H](CO)[C@@H](O)[C@H](O)[C@H]1O)[C@H]1CC[C@]2(C)[C@@H]1[C@H](O)C[C@@H]1[C@@]3(C)CC[C@H](O)C(C)(C)[C@@H]3CC[C@]12C`
Solution: 130

* * *

- assayProtocol: Drug uptake in MDCK2-MDR1 cells assessed as intracellular level measured per mg of protein at 2 uM
- Format: ADME, cell-based, Canis lupus familiaris
- conditionSummary: dog, mdck-ii
measurementName: Drug uptake (nmol/mg)
# unit: nmol/mg | format: bare number

Problem: Return Drug uptake for the following compound: `CC(C)=CCC[C@](C)(O[C@@H]1O[C@H](CO)[C@@H](O)[C@H](O)[C@H]1O)[C@H]1CC[C@]2(C)[C@@H]1[C@H](O)C[C@@H]1[C@@]3(C)CC[C@H](O)C(C)(C)[C@@H]3CC[C@]12C`
Solution: 0.08

* * *

- assayProtocol: Drug recovery in human Caco2 cells at 2 uM
- Type: ADME, cell-based
- conditionSummary: Caco-2, read-out: Drug recovery
measurementName: recovery at 2 µM (%)
Field: numeric (%). Do not append units.

Problem: Look up and state reported recovery at 2 µM for `CC(C)=CCC[C@](C)(O[C@@H]1O[C@H](CO)[C@@H](O)[C@H](O)[C@H]1O)[C@H]1CC[C@]2(C)[C@@H]1[C@H](O)C[C@@H]1[C@@]3(C)CC[C@H](O)C(C)(C)[C@@H]3CC[C@]12C`
Solution: 85

* * *

- assayProtocol: Drug uptake in human Caco2 cells assessed as intracellular level measured per mg of protein at 2 uM in presence of 50 uM verapamil P-gp inhibitor
- Type: ADME, cell-based
- conditionSummary: caco-2, 2 µM
measurementName: Drug uptake (nmol/mg)
Provide only the numeric value, understood in nmol/mg.

Problem: // fetch Drug uptake given entry `CC(C)=CCC[C@](C)(O[C@@H]1O[C@H](CO)[C@@H](O)[C@H](O)[C@H]1O)[C@H]1CC[C@]2(C)[C@@H]1[C@H](O)C[C@@H]1[C@@]3(C)CC[C@H](O)C(C)(C)[C@@H]3CC[C@]12C`
Solution: 0.5

* * *

- Test system: MDR1
- assayProtocol: Permeability across basolateral to apical side in MDCK2-MDR1 cells at 2 uM
- Type: ADME, cell-based, Canis lupus familiaris, MDCK-II
- conditionSummary: dog, MDCK-MDR1; read-out: permeability
measurementName: Papp B→A at 2 µM

Problem: Name the value of Papp B→A at 2 µM reported for `CC(C)=CCC[C@](C)(O[C@@H]1O[C@H](CO)[C@@H](O)[C@H](O)[C@H]1O)[C@H]1CC[C@]2(C)[C@@H]1[C@H](O)C[C@@H]1[C@@]3(C)CC[C@H](O)C(C)(C)[C@@H]3CC[C@]12C` when tested on MDR1.
Solution: 33.6 ×10⁻⁶ cm/s

* * *

- assayProtocol: Drug elimination rate in wildtype FVB mouse at 10 mg/kg, po
- Assay type: ADME, organism-based
- Parameters: dose 10 mg/kg, route oral
- conditionSummary: in vivo
measurementName: k el (s⁻¹)
Provide only the numeric value, understood in s⁻¹.

Problem: For the compound `CC(C)=CCC[C@](C)(O[C@@H]1O[C@H](CO)[C@@H](O)[C@H](O)[C@H]1O)[C@H]1CC[C@]2(C)[C@@H]1[C@H](O)C[C@@H]1[C@@]3(C)CC[C@H](O)C(C)(C)[C@@H]3CC[C@]12C` , give its measured k el value.
Solution: 3.61e-05

* * *

- assayProtocol: AUC (0 to time) in wildtype FVB mouse at 10 mg/kg, po
- Format: ADME, organism-based
- Parameters: dose 10 mg/kg, route oral
- conditionSummary: plasma
measurementName: AUC (µM·h)
Give the quantity in µM·h, number only.

Problem: Provide only the value of recorded AUC for `CC(C)=CCC[C@](C)(O[C@@H]1O[C@H](CO)[C@@H](O)[C@H](O)[C@H]1O)[C@H]1CC[C@]2(C)[C@@H]1[C@H](O)C[C@@H]1[C@@]3(C)CC[C@H](O)C(C)(C)[C@@H]3CC[C@]12C`
Solution: 0.66

* * *

- assayProtocol: Drug uptake in MDCK2 cells assessed as intracellular level measured per mg of protein at 2 uM
- Format: ADME, cell-based, Canis lupus familiaris
- conditionSummary: dog, mdck-ii
measurementName: Drug uptake
Param answer (str): number followed by unit.

Problem: Supply reported Drug uptake belonging to this compound: `CC(C)=CCC[C@](C)(O[C@@H]1O[C@H](CO)[C@@H](O)[C@H](O)[C@H]1O)[C@H]1CC[C@]2(C)[C@@H]1[C@H](O)C[C@@H]1[C@@]3(C)CC[C@H](O)C(C)(C)[C@@H]3CC[C@]12C`
Solution: 0.27 nmol/mg

* * *

- assayProtocol: Drug elimination rate in MDR1a/b(-/-) FVB mouse at 10 mg/kg, po
- Assay type: ADME, organism-based
- Set-up: dose 10 mg/kg, route oral
- conditionSummary: in vivo
measurementName: k el (s⁻¹)
Unit s⁻¹ implied. Number only.

Problem: For the molecule `CC(C)=CCC[C@](C)(O[C@@H]1O[C@H](CO)[C@@H](O)[C@H](O)[C@H]1O)[C@H]1CC[C@]2(C)[C@@H]1[C@H](O)C[C@@H]1[C@@]3(C)CC[C@H](O)C(C)(C)[C@@H]3CC[C@]12C` , give its reported k el.
Solution: 1.11e-05

* * *

- assayProtocol: Efflux ratio of permeability from basolateral to apical side over apical to basolateral side in human Caco2 cells at 2 uM
- Format: ADME, cell-based
- conditionSummary: Caco-2
measurementName: efflux ratio at 2 µM
Form rule: numeric answer, no unit written next to it.

Problem: Provide only the value of recorded efflux ratio at 2 µM for `CC(C)=CCC[C@](C)(O[C@@H]1O[C@H](CO)[C@@H](O)[C@H](O)[C@H]1O)[C@H]1CC[C@]2(C)[C@@H]1[C@H](O)C[C@@H]1[C@@]3(C)CC[C@H](O)C(C)(C)[C@@H]3CC[C@]12C`
Solution: 26.6

* * *

- assayProtocol: Mean residence time (infinity) in wildtype FVB mouse at 10 mg/kg, po
- Format: ADME, organism-based
- Parameters: dose 10 mg/kg, route oral
- conditionSummary: in vivo
measurementName: MRT inf (h)
Numbers only; they are read as h.

Problem: Query MRT inf for `CC(C)=CCC[C@](C)(O[C@@H]1O[C@H](CO)[C@@H](O)[C@H](O)[C@H]1O)[C@H]1CC[C@]2(C)[C@@H]1[C@H](O)C[C@@H]1[C@@]3(C)CC[C@H](O)C(C)(C)[C@@H]3CC[C@]12C`
Solution: 7.82

* * *

- assayProtocol: Cmax in MDR1a/b(-/-) FVB mouse at 10 mg/kg, po
- Format: ADME, organism-based
- Set-up: dose 10 mg/kg, route oral
- conditionSummary: in vivo
measurementName: Cmax (nM)
Entry rule: numbers only, all in nM.

Problem: Return reported Cmax. Input molecule: `CC(C)=CCC[C@](C)(O[C@@H]1O[C@H](CO)[C@@H](O)[C@H](O)[C@H]1O)[C@H]1CC[C@]2(C)[C@@H]1[C@H](O)C[C@@H]1[C@@]3(C)CC[C@H](O)C(C)(C)[C@@H]3CC[C@]12C`
Solution: 530

* * *

- assayProtocol: Permeability across apical to basolateral side in human Caco2 cells at 2 uM
- Assay type: ADME, cell-based
- conditionSummary: Caco-2, read-out: permeability
measurementName: Papp A→B at 2 µM (×10⁻⁶ cm/s)
Answer format: numeric, ×10⁻⁶ cm/s implied, no suffix.

Problem: Return reported Papp A→B at 2 µM. Input compound: `CC(C)=CCC[C@](C)(O[C@@H]1O[C@H](CO)[C@@H](O)[C@H](O)[C@H]1O)[C@H]1CC[C@]2(C)[C@@H]1[C@H](O)C[C@@H]1[C@@]3(C)CC[C@H](O)C(C)(C)[C@@H]3CC[C@]12C`
Solution: 1.16

* * *

- assayProtocol: Tmax in MDR1a/b(-/-) FVB mouse at 10 mg/kg, po
- Type: ADME, organism-based
- Set-up: dose 10 mg/kg, route oral
- conditionSummary: in vivo
measurementName: Tmax
Field: value (include unit after the number)

Problem: Recall and state the measured Tmax for `CC(C)=CCC[C@](C)(O[C@@H]1O[C@H](CO)[C@@H](O)[C@H](O)[C@H]1O)[C@H]1CC[C@]2(C)[C@@H]1[C@H](O)C[C@@H]1[C@@]3(C)CC[C@H](O)C(C)(C)[C@@H]3CC[C@]12C` .
Solution: 5.6 h

* * *

- Tested on: MDR1
- assayProtocol: Permeability across apical to basolateral side in MDCK2-MDR1 cells at 2 uM
- Assay type: ADME, cell-based, Canis lupus familiaris, MDCK-II
- conditionSummary: dog, MDCK-MDR1; read-out: permeability
measurementName: Papp A→B at 2 µM (×10⁻⁶ cm/s)
Enter your answer as a number in ×10⁻⁶ cm/s; do not include the unit.

[
  {
    "molecule": "CC(C)=CCC[C@](C)(O[C@@H]1O[C@H](CO)[C@@H](O)[C@H](O)[C@H]1O)[C@H]1CC[C@]2(C)[C@@H]1[C@H](O)C[C@@H]1[C@@]3(C)CC[C@H](O)C(C)(C)[C@@H]3CC[C@]12C",
    "unitOfMeasure": "×10⁻⁶ cm/s",
    "Papp A→B at 2 µM": 1.84
  }
]

// next item, Papp A→B at 2 µM requested
Problem: Let me know recorded Papp A→B at 2 µM for C[C@H]1O[C@@H](O[C@H]2[C@@H](O)C[C@H](O[C@H]3[C@@H](O)C[C@H](O[C@H]4CC[C@@]5(C)[C@H](CC[C@@H]6[C@@H]5C[C@@H](O)[C@]5(C)[C@@H](C7=CC(=O)OC7)CC[C@]65O)C4)O[C@@H]3C)O[C@@H]2C)C[C@H](O)[C@@H]1O [DIGOXIN] , thanks.
Solution: 0.298
